meta.source: ChEMBL document CHEMBL2429837

Target: Tyrosine-protein phosphatase non-receptor type 1 (Homo sapiens)
Sequence (P18031 whole entry): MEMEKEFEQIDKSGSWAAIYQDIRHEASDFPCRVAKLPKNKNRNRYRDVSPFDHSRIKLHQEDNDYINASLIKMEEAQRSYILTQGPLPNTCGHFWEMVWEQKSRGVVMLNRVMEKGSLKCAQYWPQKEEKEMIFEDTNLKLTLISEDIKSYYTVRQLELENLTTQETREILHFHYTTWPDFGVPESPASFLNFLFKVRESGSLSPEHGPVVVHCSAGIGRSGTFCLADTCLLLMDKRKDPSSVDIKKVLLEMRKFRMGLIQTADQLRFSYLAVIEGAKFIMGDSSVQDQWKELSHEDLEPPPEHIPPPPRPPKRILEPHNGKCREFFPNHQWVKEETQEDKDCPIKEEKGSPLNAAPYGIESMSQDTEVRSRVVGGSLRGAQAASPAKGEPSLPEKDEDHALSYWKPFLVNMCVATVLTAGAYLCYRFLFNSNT
measure: IC50

## Task Recorded IC50 for `C[C@H]1COC2=C1C(=O)C(=O)c1c2ccc2c1CCCC2(C)C` with Tyrosine-protein phosphatase non-receptor type 1 (Homo sapiens), please?
## Result 33.5 µM
